assay: in vivo; conditions: BALB/c nude, mouse, in vivo, iv, total radioactivity, T/L Tumor/Liver ratio
RECORDED_METRIC: tissue to tissue ratio at 24 h

Recorded tissue to tissue ratio at 24 h (compound C[C@@H](O)[C@H](NC(=O)[C@@H]1CSSC[C@H](NC(=O)[C@@H](Cc2ccccc2)NC(=O)CC[C@H](NC(=O)[C@H](CCCCNC(=O)CC[C@H](NC(=O)CNC(=O)c2cccc(NC(=O)N[C@@H]3CN(C4CCCCC4)c4ccccc4N(CC(=O)C(C)(C)C)C3=O)c2)C(=O)O)NC(=O)CC[C@H](NC(=O)CN2CCN(CC(=O)O)CCN(CC(=O)O)CCN(CC(=O)O)CC2)C(=O)O)C(=O)O)C(=O)N[C@@H](Cc2ccc(O)cc2)C(=O)N[C@H](Cc2c[nH]c3ccccc23)C(=O)N[C@@H](CCCCN)C(=O)N[C@@H]([C@@H](C)O)C(=O)N1)C(=O)O [Compound I-9] ): 8.3

Recorded tissue to tissue ratio at 24 h (compound C[C@@H](O)[C@H](NC(=O)[C@@H]1CSSC[C@H](NC(=O)[C@@H](Cc2ccccc2)NC(=O)COCCOCCNC(=O)COCCOCCNC(=O)[C@H](CCCCNC(=O)c2cccc(NC(=O)N[C@@H]3CN(C4CCCCC4)c4ccccc4N(CC(=O)C(C)(C)C)C3=O)c2)NC(=O)CN2CCN(CC(=O)O)CCN(CC(=O)O)CCN(CC(=O)O)CC2)C(=O)N[C@@H](Cc2ccc(O)cc2)C(=O)N[C@H](Cc2c[nH]c3ccccc23)C(=O)N[C@@H](CCCCN)C(=O)N[C@@H]([C@@H](C)O)C(=O)N1)C(=O)O [Compound I-39, DOTA-K(Z360)-OEG-OEG-f[CYwKTC]T-OH] ): 9.9

Recorded tissue to tissue ratio at 24 h (compound C[C@@H](O)[C@H](NC(=O)[C@@H]1CSSC[C@H](NC(=O)[C@@H](Cc2ccccc2)NC(=O)CNC(=O)COCCOCCNC(=O)[C@H](CCCCNC(=O)c2cccc(NC(=O)N[C@@H]3CN(C4CCCCC4)c4ccccc4N(CC(=O)C(C)(C)C)C3=O)c2)NC(=O)CN2CCN(CC(=O)O)CCN(CC(=O)O)CCN(CC(=O)O)CC2)C(=O)N[C@@H](Cc2ccc(O)cc2)C(=O)N[C@H](Cc2c[nH]c3ccccc23)C(=O)N[C@@H](CCCCN)C(=O)N[C@@H]([C@@H](C)O)C(=O)N1)C(=O)O [Compound I-53, DOTA-K(Z360)-OEG-G-f[CYwKTC]T-OH] ): 6.3
